Each record here notes measured melting point.

Before answering, review these 8 worked examples.
{"item-smiles": "Cc1ccc(C(=O)N(C)C)cc1-c1nc(N2CCN(C)CC2)nc2c1CNC(=O)N2c1c(F)cccc1F", "value": "159 to 162 °C"}
{"item-smiles": "Cc1ccc(C(=O)N(C)C)cc1-c1nc(NC2CCN(C)CC2)nc2c1CNC(=O)N2c1c(F)cccc1F", "value": "163 to 165 °C"}
{"item-smiles": "CNC(=O)c1ccc(C)c(-c2nc(NCCN(C)C)nc3c2CNC(=O)N3c2c(F)cccc2F)c1", "value": "155 to 158 °C (dec.)"}
{"item-smiles": "Cc1ccc(C(=O)Nc2ccc(C)c(-c3nc(N(C)C)nc4c3CNC(=O)N4c3c(F)cccc3F)c2)cc1F", "value": "257.8 to 264.3 °C"}
{"item-smiles": "Cc1ccc(C(=O)NCc2ccccc2)cc1-c1nc(N2CCC(N(C)C(=O)OC(C)(C)C)CC2)nc2c1CNC(=O)N2c1c(F)cccc1F", "value": "146 to 150 °C (dec.)"}
{"item-smiles": "Cc1ccc(NC(=O)c2ccsc2)cc1-c1nc(N2CCC(N)CC2)nc2c1CNC(=O)N2c1c(F)cccc1F", "value": "250 to 261 °C (dec.)"}
{"item-smiles": "Cc1ccc(C(=O)N(C)C)cc1-c1nc(NCCNC(C)C)nc2c1CNC(=O)N2c1c(F)cccc1F", "value": "130 to 133 °C"}
{"item-smiles": "CNC(=O)c1ccc(C)c(-c2nc(NCCNC(C)C)nc3c2CNC(=O)N3c2c(F)cccc2F)c1", "value": "136 to 139 °C (dec.)"}

Query: Answer with the recorded melting point of `Cc1ccc(C(=O)NCc2ccccc2)cc1-c1nc(N2CCC(N)CC2)nc2c1CNC(=O)N2c1c(F)cccc1F` only.
Reply: 210 to 266 °C (dec.)

Query: Answer with the recorded melting point of `CCCCN(CCCC)CCCNc1nc(-c2cc(C(=O)NC)ccc2C)c2c(n1)N(c1c(F)cccc1F)C(=O)NC2` only.
Reply: 112 to 115 °C

Query: Answer with the recorded melting point of `Cc1ccc(C(=O)NCc2ccccc2)cc1-c1nc(NCCN(C)C)nc2c1CNC(=O)N2c1c(F)cccc1F` only.
Reply: 148 to 150 °C

---

measured-endpoint: melting point

{"compound": "COc1nc(-c2cc(NC(=O)c3ccsc3)ccc2C)c2c(n1)N(c1c(F)cccc1F)C(=O)NC2 [10(e)]", "melting point": "225 to 228 °C (dec.)"}
{"compound": "Cc1ccc(C(=O)NCc2ccccc2)cc1-c1nc(NC2CC(C)(C)NC(C)(C)C2)nc2c1CNC(=O)N2c1c(F)cccc1F", "melting point": "160 to 165 °C (dec.)"}
{"compound": "CNC(=O)c1ccc(C)c(-c2nc(N(C)CCCN(C)C)nc3c2CNC(=O)N3c2c(F)cccc2F)c1", "melting point": "163 to 165 °C"}

Query: Answer with the recorded melting point of `CCN(CC)C(=O)c1ccc(C)c(-c2nc(N(C)CCCN(C)C)nc3c2CNC(=O)N3c2c(F)cccc2F)c1` only.
Reply: 106 to 108 °C

---

Each record here notes measured melting point.

{"compound": "CCN(CC)C(=O)c1ccc(C)c(-c2nc(NC3CCN(C)CC3)nc3c2CNC(=O)N3c2c(F)cccc2F)c1 [Example 159]", "melting point": "165 to 169 °C"}
{"compound": "CNC(=O)c1ccc(C)c(-c2nc(NC3CCN(C)CC3)nc3c2CNC(=O)N3c2c(F)cccc2F)c1 [Example 173]", "melting point": "205 to 209 °C (dec.)"}
{"compound": "CCN(CC)C(=O)c1ccc(C)c(-c2nc(NCCNC(C)C)nc3c2CNC(=O)N3c2c(F)cccc2F)c1 [Example 160]", "melting point": "89 to 91 °C"}
{"compound": "Cc1ccc(C(=O)Nc2ccc(C)c(-c3nc(N4CCC(N)CC4)nc4c3CNC(=O)N4c3c(F)cccc3F)c2)cc1F [Example 24]", "melting point": "240 °C"}
{"compound": "Cc1ccc(C(=O)N(C)C)cc1-c1nc(NCCN(C)C)nc2c1CNC(=O)N2c1c(F)cccc1F [Example 152]", "melting point": "138 to 142 °C"}
{"compound": "Cc1ccc(C(=O)Nc2ccc(C)c(-c3nc(NC4CCNCC4)nc4c3CNC(=O)N4c3c(F)cccc3F)c2)cc1F [Example 27(b)]", "melting point": "218 to 223.5 °C"}
{"compound": "CNC(=O)c1ccc(C)c(-c2nc(NCCCN(C)C)nc3c2CNC(=O)N3c2c(F)cccc2F)c1 [Example 166]", "melting point": "164 to 167 °C (dec.)"}
{"compound": "Cc1ccc(C(=O)Nc2ccc(C)c(-c3nc(OC(C)C)nc4c3CNC(=O)N4c3c(F)cccc3F)c2)cc1F [Example 26]", "melting point": "253.5 to 255.4 °C"}

Consider now this further compound.
Query: Answer with the recorded melting point of CNC(=O)c1ccc(C)c(-c2nc(NCCCNC(C)C)nc3c2CNC(=O)N3c2c(F)cccc2F)c1 [Example 168] only.
Reply: 153 to 157 °C (dec.)

---

Each record here notes measured melting point.

Before answering, review these 3 worked examples.
{"compound": "Cc1ccc(C(=O)NCc2ccccc2)cc1-c1nc(NC2CCNCC2)nc2c1CNC(=O)N2c1c(F)cccc1F [21(b)]", "melting point": "172 to 176 °C (dec.)"}
{"compound": "CCOc1nc(-c2cc(NC(=O)c3ccsc3)ccc2C)c2c(n1)N(c1c(F)cccc1F)C(=O)NC2 [Example 13]", "melting point": "199 to 202 °C (dec.)"}
{"compound": "CNc1nc(-c2cc(NC(=O)c3ccsc3)ccc2C)c2c(n1)N(c1c(F)cccc1F)C(=O)NC2 [Example 14]", "melting point": "203 to 207 °C (dec.)"}

Consider now this further compound.
Query: Answer with the recorded melting point of Cc1ccc(C(=O)NCc2ccccc2)cc1-c1nc(NCCCN(C)C)nc2c1CNC(=O)N2c1c(F)cccc1F [Example 151] only.
Reply: 141 to 144 °C

---

Each record here notes measured melting point.

{"compound": "Cc1ccc(C(=O)N(C)C)cc1-c1nc(N(C)CCCN(C)C)nc2c1CNC(=O)N2c1c(F)cccc1F [Example 154]", "measured-endpoint": "melting point", "value": "114 to 118 °C"}

Query: Answer with the recorded melting point of CCN(CC)C(=O)c1ccc(C)c(-c2nc(N3CCN(C)CC3)nc3c2CNC(=O)N3c2c(F)cccc2F)c1 [Example 162] only.
Reply: 201 to 205 °C (dec.)

Query: Answer with the recorded melting point of Cc1ccc(C(=O)Nc2ccc(C)c(-c3nc(NC4CC(C)(C)NC(C)(C)C4)nc4c3CNC(=O)N4c3c(F)cccc3F)c2)cc1F [23(e)] only.
Reply: 220 °C (dec.)

Query: Answer with the recorded melting point of Cc1ccc(C(=O)NCc2ccccc2)cc1-c1nc(NCCNC(C)C)nc2c1CNC(=O)N2c1c(F)cccc1F [Example 20] only.
Reply: 133 to 137 °C

Query: Answer with the recorded melting point of CNC(=O)c1ccc(C)c(-c2nc(N3CCC(N4CCCCC4)CC3)nc3c2CNC(=O)N3c2c(F)cccc2F)c1 [Example 176] only.
Reply: 179 to 184 °C (dec.)

Query: Answer with the recorded melting point of Cc1ccc(NC(=O)c2ccsc2)cc1-c1nc(N(C)C)nc2c1CNC(=O)N2c1c(F)cccc1F [Example 12] only.
Reply: 214 to 215 °C

---

measured-endpoint: melting point

Before answering, review these 4 worked examples.
{"item-smiles": "Cc1ccc(C(=O)NCc2ccccc2)cc1-c1nc(N2CCN(C)CC2)nc2c1CNC(=O)N2c1c(F)cccc1F", "melting point": "164 to 168 °C"}
{"item-smiles": "CNC(=O)c1ccc(C)c(-c2nc(N3CCN(C)CC3)nc3c2CNC(=O)N3c2c(F)cccc2F)c1", "melting point": "164 to 168 °C (dec.)"}
{"item-smiles": "CNCCNc1nc(-c2cc(C(=O)NCc3ccccc3)ccc2C)c2c(n1)N(c1c(F)cccc1F)C(=O)NC2", "melting point": "157 to 161 °C"}
{"item-smiles": "Cc1ccc(C(=O)NCc2ccccc2)cc1-c1nc(N(C)CCCN(C)C)nc2c1CNC(=O)N2c1c(F)cccc1F", "melting point": "124 to 127 °C"}

Consider now this further molecule.
Query: Answer with the recorded melting point of `CCN(CC)CCCNc1nc(-c2cc(C(=O)NC)ccc2C)c2c(n1)N(c1c(F)cccc1F)C(=O)NC2` only.
Reply: 133 to 136 °C

---

measured-endpoint: melting point

Before answering, review these 4 worked examples.
{"compound": "CCN(CC)C(=O)c1ccc(C)c(-c2nc(NCCN(C)C)nc3c2CNC(=O)N3c2c(F)cccc2F)c1 [156(c)]", "melting point": "125 to 127 °C"}
{"compound": "CNC(=O)c1ccc(C)c(-c2nc(N3CCC(N4CCCC4)CC3)nc3c2CNC(=O)N3c2c(F)cccc2F)c1 [Example 175]", "melting point": "189 to 194 °C (dec.)"}
{"compound": "Cc1ccc(C(=O)NCc2ccccc2)cc1-c1nc(NC2CCN(C)CC2)nc2c1CNC(=O)N2c1c(F)cccc1F [Example 22]", "melting point": "152 to 154 °C (dec.)"}
{"compound": "CNC(=O)c1ccc(C)c(-c2nc(NCCCNC(C)(C)C)nc3c2CNC(=O)N3c2c(F)cccc2F)c1 [Example 170]", "melting point": "166 to 170 °C (dec.)"}

Consider now this further compound.
Query: Answer with the recorded melting point of CCOc1nc(-c2cc(NC(=O)c3ccc(C)c(F)c3)ccc2C)c2c(n1)N(c1c(F)cccc1F)C(=O)NC2 [Example 25] only.
Reply: 257.3 to 262.5 °C
